- assay target: EcwtSC (Escherichia coli, UniProt P0A988)
- Sequence (P0A988 whole entry): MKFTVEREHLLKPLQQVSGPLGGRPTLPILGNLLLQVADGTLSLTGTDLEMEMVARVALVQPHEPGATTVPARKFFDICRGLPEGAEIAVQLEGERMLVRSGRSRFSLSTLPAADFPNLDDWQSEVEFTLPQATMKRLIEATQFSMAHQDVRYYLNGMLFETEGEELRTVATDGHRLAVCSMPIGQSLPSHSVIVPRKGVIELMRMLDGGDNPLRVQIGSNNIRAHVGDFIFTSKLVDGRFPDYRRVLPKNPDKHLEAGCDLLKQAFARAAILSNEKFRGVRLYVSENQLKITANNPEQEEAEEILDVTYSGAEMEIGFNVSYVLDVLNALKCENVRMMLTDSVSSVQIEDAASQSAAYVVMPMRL
- test name: Isothermal Titration Calorimetry (ITC/kinITC), wild-type sliding clamp
- Assay type: binding, E. coli
- applied conditions: buffer R1 (X 1), 295.15 K (22 °C)
Square brackets hold non-standard residues; d marks the D form. Peptide text beside a SMILES is read from it. * marks the point of attachment. Cha = N[C@@H](CC1CCCCC1)C(=O)O; Crotonyl(E) = C/C=C/C(=O)*; Dap = NC[C@H](N)C(=O)O; Acryloyl = C=CC(=O)*; ClAc = O=C(CCl)*; X1 = CC#CC(=O)*
I'd appreciate it if you could supply ΔG values for the items below.

compound	meas value
CC#CC(=O)NC[C@H](NC(=O)[C@H](CC1CCCCC1)NC(=O)[C@H](CCC(N)=O)NC(C)=O)C(=O)N[C@@H](CC(C)C)C(=O)N[C@@H](Cc1ccccc1)C(=O)O [Peptide 5, Ac-Gln-Cha-Dap(but-2-ynamide)-Leu-Phe-OH] (Ac-Q[Cha][Dap](X1)LF-OH)	-10.5 (± 0.2) kcal/mol
CC(=O)N[C@@H](CCC(N)=O)C(=O)N[C@@H](CC1CCCCC1)C(=O)N[C@@H](CNC(=O)CCl)C(=O)N[C@@H](CC(C)C)C(=O)N[C@@H](Cc1ccccc1)C(=O)O [Peptide 2] (Ac-Q[Cha][Dap](ClAc)LF-OH)	-9.31 (± 0.03) kcal/mol
C/C=C/C(=O)NC[C@H](NC(=O)[C@H](CC1CCCCC1)NC(=O)[C@H](CCC(N)=O)NC(C)=O)C(=O)N[C@@H](CC(C)C)C(=O)N[C@@H](Cc1ccccc1)C(=O)O [Peptide 3, Ac-Gln-Cha-Dap(but-2-enamide)-Leu-Phe-OH] (Ac-Q[Cha][Dap](Crotonyl(E))LF-OH)	-9.7 (± 0.2) kcal/mol

Kindly consider the entry below.
I would be grateful if you could share the reported ΔG for C=CC(=O)NC[C@H](NC(=O)[C@H](CC1CCCCC1)NC(=O)[C@H](CCC(N)=O)NC(C)=O)C(=O)N[C@@H](CC(C)C)C(=O)N[C@@H](Cc1ccccc1)C(=O)O [Peptide 1, Ac-Gln-Cha-Dap(acrylamide)-Leu-Phe-OH] (Ac-Q[Cha][Dap](Acryloyl)LF-OH) .
-9.4 (± 0.2) kcal/mol
